Listed molecules paired with reported filipin (z-score)
system: A431; assay: filipin (cholesterol) integrated intensity within LBPA endosomes, Z-score; higher = more cholesterol in LBPA endosomes; conditions: compound concentration in added solution (µM; 5 µl added to 20 µl cells): 10; 18 h
Counter-ions that a name gives are not always drawn.
Number, no unit, nothing else.

molecule: Cc1[nH]c(=O)c(C#N)cc1-c1ccncc1
numericValue: -0.351
//
molecule: Nc1ccc(/N=N/c2ccccc2)c(N)n1 [Phenazopyridine hydrochloride]
numericValue: -0.32
//
molecule: COc1ccc2cc([C@H](C)C(=O)O)ccc2c1
numericValue: -0.525
//
molecule: COCCCC/C(=N\OCCN)c1ccc(C(F)(F)F)cc1 [Fluvoxamine maleate]
numericValue: 0.839
//
molecule: CN(C)CCOC(C)(c1ccccc1)c1ccccn1 (configuration not stated) [Doxylamine succinate]
numericValue: -0.488
//
molecule: CC[C@H](C)[C@H](N)C1=N[C@H](C(=O)N[C@@H](CC(C)C)C(=O)N[C@H](CCC(=O)O)C(=O)N[C@H](C(=O)N[C@H]2CCCCNC(=O)[C@H](CC(N)=O)NC(=O)[C@@H](CC(=O)O)NC(=O)[C@H](Cc3cnc[nH]3)NC(=O)[C@@H](Cc3ccccc3)NC(=O)[C@H]([C@@H](C)CC)NC(=O)[C@@H](CCCN)NC2=O)[C@@H](C)CC)CS1
numericValue: -0.368

Lab note: next molecule to report on.
Item Cc1cc(-n2c(=O)[nH]c(=O)n(C)c2=O)ccc1Oc1ccc(SC(F)(F)F)cc1 : provide filipin (z-score)
-0.337

---

system: HeLa MZ; experiment: filipin (cholesterol) integrated intensity within LBPA endosomes, Z-score; higher = more cholesterol in LBPA endosomes; conditions: compound concentration in added solution (µM; 5 µl added to 20 µl cells): 10; 18 h
measurementType: filipin (z-score)
API note: the answer field is a bare number with no unit suffix.

// solved cases for filipin (z-score) follow
compound: Nc1nc(=O)c2nc(CNc3ccc(C(=O)N[C@@H](CCC(=O)O)C(=O)O)cc3)cnc2[nH]1 [Folic acid]
filipin (z-score): -0.671
//
compound: C[C@]1(Cn2ccnn2)[C@H](C(=O)O)N2C(=O)C[C@H]2S1(=O)=O [Tazobactam]
filipin (z-score): -0.538
//
compound: C#C[C@]1(OC(C)=O)CC[C@H]2[C@@H]3CCC4=CC(=NO)CC[C@@H]4[C@H]3CC[C@@]21CC (mixture of isomers) [Norgestimate]
filipin (z-score): 0.087

Continue with the compound presented below.
Quickly give me recorded filipin (z-score) for Nc1nc(=S)c2ncn([C@@H]3O[C@H](CO)[C@@H](O)[C@H]3O)c2[nH]1 [Thioguanosine]
-0.626

---

The following compounds are listed with their measured filipin (z-score) values.
system: HeLa MZ; test: filipin (cholesterol) integrated intensity within LBPA endosomes, Z-score; higher = more cholesterol in LBPA endosomes; settings: compound concentration in added solution (µM; 5 µl added to 20 µl cells): 10; 18 h
Counter-ions that a name gives are not always drawn.
I only need the number, thanks.

compound: O=C1CC2(CCCC2)CC(=O)N1CCCCN1CCN(c2ncccn2)CC1 [Buspirone hydrochloride]
systemName: HeLa MZ
filipin (z-score): 0.293
--
compound: Cc1nnc(SCC2=C(C(=O)O)N3C(=O)[C@@H](NC(=O)Cn4cnnn4)[C@H]3SC2)s1 [Cefazolin sodium salt]
systemName: HeLa MZ
filipin (z-score): -0.417
--
compound: C#CCN(C)Cc1ccccc1 [Pargyline hydrochloride]
systemName: HeLa MZ
filipin (z-score): -0.441

Given CCCNCC(O)COc1ccccc1C(=O)CCc1ccccc1 (stereo not drawn) [Propafenone hydrochloride] , respond with its filipin (z-score).
2.28

Give a short answer stating reported filipin (z-score) for NNC(=O)c1ccncc1 .
-0.667

Identify the reported filipin (z-score) for the following entry. CC1(C)[C@@H](OC(=O)CCC(=O)O)CC[C@]2(C)[C@H]3C(=O)C=C4[C@@H]5C[C@@](C)(C(=O)O)CC[C@]5(C)CC[C@@]4(C)[C@]3(C)CC[C@@H]12 [Carbenoxolone disodium salt]
-0.356

Recall and state the measured filipin (z-score) for N=C(N)NCC1COC2(CCCCC2)O1 (stereo not drawn) [Guanadrel sulfate] .
-0.438

# return recorded filipin (z-score) for input CCc1c2c(nc3ccc(OC(=O)N4CCC(N5CCCCC5)CC4)cc13)-c1cc3c(c(=O)n1C2)COC(=O)[C@]3(O)CC [Irinotecan Hydrochloride]
-0.0232

---

tested on: HeLa MZ; test: LBPA endosome anti-LBPA integrated intensity (sum per cell), Z-score; higher = more LBPA staining; conditions: compound concentration in added solution (µM; 5 µl added to 20 µl cells): 10; 18 h
Structures can show the parent of a compound that is named as a salt.
So basically: LBPA endosome anti-LBPA integrated intensity (z-score) at -0.3 or higher? That is true (1). Lower than -0.3? That is false (0).

# count of solved cases: 10
compound: CC(C)NCC(O)c1ccc2ccccc2c1 (configuration not stated) [Pronethalol hydrochloride]
groupLabel: true (1)
//
compound: CCCCc1nc(Cl)c(CO)n1Cc1ccc(-c2ccccc2-c2nnn[nH]2)cc1
groupLabel: true (1)
//
compound: N[C@@H](C(=O)N[C@@H]1C(=O)N2C(C(=O)O)=C(Cl)CS[C@H]12)c1ccccc1 [Cefaclor hydrate]
groupLabel: false (0)
//
compound: CC(C)c1c(C(=O)Nc2ccccc2)c(-c2ccccc2)c(-c2ccc(F)cc2)n1CC[C@@H](O)C[C@@H](O)CC(=O)O
groupLabel: false (0)
//
compound: CC=CC(=O)N(CC)c1ccccc1C
groupLabel: false (0)
//
compound: CC(C)OC(=O)C(C)(C)Oc1ccc(C(=O)c2ccc(Cl)cc2)cc1 [Fenofibrate]
groupLabel: false (0)
//
compound: CC(=O)OCC(=O)[C@@]12OC3(CCCC3)O[C@@H]1C[C@H]1[C@@H]3CCC4=CC(=O)C=C[C@]4(C)[C@@]3(F)[C@@H](O)C[C@@]12C [Amcinonide]
groupLabel: true (1)
//
compound: COC(c1ccccc1)(c1ccccc1)[C@H](Oc1nc(C)cc(C)n1)C(=O)O
groupLabel: true (1)
//
compound: CCN(CC)CCNC(=O)c1ccc(N)cc1 [Procainamide hydrochloride]
groupLabel: true (1)
//
compound: CN(C(=O)CN(CCO)CC(=O)N(C)C(C)(C)Cc1ccccc1)C(C)(C)Cc1ccccc1
groupLabel: true (1)

Hello, I need to know if CO/N=C(\C(=O)N[C@@H]1C(=O)N2C(C(=O)O)=C(COC(N)=O)CS[C@H]12)c1ccco1 [Cefuroxime sodium salt] has measured LBPA endosome anti-LBPA integrated intensity (z-score) not below -0.3. Thanks!
false (0)

// inclusive: LBPA endosome anti-LBPA integrated intensity (z-score) at least -0.3? input: CCC(C)(C)C(=O)O[C@H]1C[C@@H](C)C=C2C=C[C@H](C)[C@H](CC[C@@H]3C[C@@H](O)CC(=O)O3)[C@H]21
false (0)

Is the recorded value of LBPA endosome anti-LBPA integrated intensity (z-score) equal to or greater than -0.3 for this compound? CC(=O)SCC(Cc1ccccc1)C(=O)NCC(=O)OCc1ccccc1 (configuration not stated)
false (0)

Dear colleague, could you confirm whether COc1ccc(OC)c(C(O)CNC(=O)CN)c1 (configuration not stated) [Midodrine hydrochloride] has LBPA endosome anti-LBPA integrated intensity (z-score) at or above -0.3?
false (0)

Is LBPA endosome anti-LBPA integrated intensity (z-score) at least -0.3? Consider CNCC(O)c1ccc(O)c(O)c1 (configuration not stated) [Racepinephrine HCl]
true (1)

For this compound, is measured LBPA endosome anti-LBPA integrated intensity (z-score) -0.3 or higher? CC(=C(CCO)SSCC1CCCO1)N(C=O)Cc1cnc(C)nc1N (stereo in doubt) [Fursultiamine Hydrochloride]
true (1)

Hi, just wondering whether CCCCN(CCCC)CCCOC(=O)c1ccc(N)cc1 shows LBPA endosome anti-LBPA integrated intensity (z-score) of -0.3 or higher.
true (1)

State whether the measured LBPA endosome anti-LBPA integrated intensity (z-score) reaches -0.3, counting equality as reaching it, for C=C[C@H]1CN2CC[C@H]1C[C@@H]2[C@@H](O)c1ccnc2ccc(OC)cc12 [Quinidine hydrochloride monohydrate]
true (1)

Is LBPA endosome anti-LBPA integrated intensity (z-score) at least -0.3? Consider Cc1oncc1C(=O)Nc1ccc(C(F)(F)F)cc1 [Leflunomide]
false (0)

---

tested on: HeLa MZ; experiment: whole-cell filipin (free cholesterol) integrated intensity, Z-score; higher = more cholesterol staining; settings: compound concentration in added solution (µM; 5 µl added to 20 µl cells): 10; 18 h
Where a name gives a salt, the structure may show the parent alone.
Could you label it YES if measured whole-cell filipin (z-score) is -0.1 or higher, and NO otherwise?

compound: CNCCC(Oc1ccccc1OC)c1ccccc1 (stereo not given) [Nisoxetine hydrochloride]
groupLabel: YES

compound: CN(C)c1ccc(O)c2c1C[C@H]1C[C@H]3[C@H](N(C)C)C(O)=C(C(N)=O)C(=O)[C@@]3(O)C(O)=C1C2=O [Minocycline hydrochloride]
groupLabel: NO

Entry CC1(C)O[C@@H]2C[C@H]3[C@@H]4CCC5=CC(=O)CC[C@]5(C)[C@@]4(F)[C@@H](O)C[C@]3(C)[C@]2(C(=O)CCl)O1 [Halcinonide] : is its whole-cell filipin (z-score) no less than -0.1?
YES

Assess whether reported whole-cell filipin (z-score) for N=C(N)NC(=O)c1nc(Cl)c(N)nc1N [Amiloride hydrochloride dihydrate] sits at -0.1 or higher.
NO

Check if whole-cell filipin (z-score) >= -0.1 (inclusive). Item: CCS(=O)(=O)CCn1c([N+](=O)[O-])cnc1C
NO
